- measurement-target: TYK2 (Homo sapiens, UniProt P29597)
- Construct: Degradation of TYK2 in cells was quantitatively measured using Meso Scale Discovery (MSD) technology; endogenous in cells; host or cells: OCI-LY10
- Sequence (P29597 whole entry): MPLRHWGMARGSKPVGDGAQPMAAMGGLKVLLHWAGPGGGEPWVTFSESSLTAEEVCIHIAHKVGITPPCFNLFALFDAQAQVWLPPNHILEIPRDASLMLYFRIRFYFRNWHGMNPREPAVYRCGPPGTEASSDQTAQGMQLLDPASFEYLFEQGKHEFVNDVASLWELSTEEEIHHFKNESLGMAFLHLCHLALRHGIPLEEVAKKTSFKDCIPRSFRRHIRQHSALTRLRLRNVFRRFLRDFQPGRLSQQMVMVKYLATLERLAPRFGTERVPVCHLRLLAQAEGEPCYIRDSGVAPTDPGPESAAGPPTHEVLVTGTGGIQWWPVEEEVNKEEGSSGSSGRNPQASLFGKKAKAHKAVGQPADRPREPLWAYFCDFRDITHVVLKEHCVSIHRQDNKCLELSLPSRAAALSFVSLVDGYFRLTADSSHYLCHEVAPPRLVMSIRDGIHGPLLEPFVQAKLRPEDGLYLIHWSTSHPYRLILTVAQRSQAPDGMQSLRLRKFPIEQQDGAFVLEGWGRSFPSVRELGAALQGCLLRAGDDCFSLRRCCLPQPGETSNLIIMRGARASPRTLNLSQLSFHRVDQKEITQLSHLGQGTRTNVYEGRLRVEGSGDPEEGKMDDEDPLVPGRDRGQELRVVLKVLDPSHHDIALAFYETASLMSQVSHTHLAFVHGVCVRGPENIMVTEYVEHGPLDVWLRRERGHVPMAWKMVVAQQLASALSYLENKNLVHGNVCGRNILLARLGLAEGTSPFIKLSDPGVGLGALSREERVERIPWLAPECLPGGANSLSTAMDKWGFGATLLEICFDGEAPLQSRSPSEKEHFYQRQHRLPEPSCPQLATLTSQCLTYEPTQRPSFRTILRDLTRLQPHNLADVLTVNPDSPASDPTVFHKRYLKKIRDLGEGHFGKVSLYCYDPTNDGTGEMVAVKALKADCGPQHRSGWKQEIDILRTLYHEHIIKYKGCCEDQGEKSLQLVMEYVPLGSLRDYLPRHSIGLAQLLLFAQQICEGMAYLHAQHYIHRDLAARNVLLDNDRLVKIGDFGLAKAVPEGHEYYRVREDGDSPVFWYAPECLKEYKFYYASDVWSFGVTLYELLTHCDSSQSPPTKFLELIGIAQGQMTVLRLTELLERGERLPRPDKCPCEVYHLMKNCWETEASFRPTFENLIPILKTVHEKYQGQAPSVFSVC
- assay-explanation: TYK2 MSD degradation in OCI-LY10 cells
- Type: cell-based
- measurement-parameters: TYK2 degradation in OCI-LY10 cells, 4 to 24 hours incubation, read-out: TYK2 MSD OCI-LY10 Rel-DC50
Below, each entry is listed with its recorded DC50.

Solved cases below.
{"molecule": "CNc1cc(N2CCc3c(CN4CCC(N5CCC(N6CCN(c7ccc8c(c7)n(C)c(=O)n8C7CCC(=O)NC7=O)CC6)CC5)C(F)(F)C4)cccc32)nn2c(C(=O)NC3CC3)cnc12 (centres unmarked)", "DC50": "< 1 nM"}
{"molecule": "CNc1cc(N2CCc3c(CN4CCC(CN5CCC6(CCN(C(=O)c7cc(C)c(Cl)c(N8CCC(=O)NC8=O)c7)CC6)C(F)(F)C5)C(F)(F)C4)cccc32)nn2c(C(=O)N[C@@H]3CC[C@H]3OC)cnc12 (some centres unmarked)", "DC50": "< 1 nM"}
{"molecule": "CNc1cc(-c2ccc(-c3ccc(CN4CC5(CCN(C(=O)c6ccc(Cl)c(N7CCC(=O)NC7=O)c6)CC5(F)F)C4)cn3)cc2)nn2c(C(=O)N[C@@H]3C[C@@H]3F)cnc12", "DC50": "< 10 nM"}
{"molecule": "CNc1cc(N2CCc3c(-c4ccc(CN5CC6(CCN(C(=O)c7cncc(N8CCC(=O)NC8=O)c7)CC6)C5)cn4)cccc32)nn2c(C(=O)N[C@@H]3C[C@@H]3F)cnc12", "DC50": "> 100 nM"}

Now for the molecule whose DC50 we want.
Please look up its DC50: CNc1cc(N2CCc3c(-c4ncc(CN5CC6(CCN(C(=O)c7cc(C)c(OC)c(N8CCC(=O)NC8=O)c7)CC6(F)F)C5)cc4F)cccc32)nn2c(C(=O)N[C@@H]3CC[C@H]3OC)cnc12 < 1 nM
